All figures here come from patent US8378104B2.

# System: pJNK in HCT-116 cells
# assayProtocol: Phospho-JNK (Thr183/Tyr185) Meso Scale ELISA assay, TNFα-stimulated HCT-116 cells
# Type: cell-based
# testParameters: Homo sapiens, read-out: mean HCT-116 pJNK ELISA IC50 (Col. B)
pIC50: −log10 of the molar value. Where a name gives a salt, the structure may show the parent alone.

>  <compound>
CC(=O)N1CCC(n2cc(-c3cnc(N)c4oc(-c5cccc6c5OC(F)(F)O6)cc34)cn2)CC1

>  <pIC50>
6.00 to 7.00

$$$$
>  <compound>
Nc1ncc(-c2cnn(C3CCN(C(=O)C4CC4)CC3)c2)c2cc(-c3csc4cnccc34)oc12 [Example 228, diformate salt]

>  <pIC50>
> 7.00

$$$$
>  <compound>
CCNc1nc2cccc(-c3cc4c(-c5cnn(C6CCN(C(C)=O)CC6)c5)cnc(N)c4o3)c2s1 [Example 354, trifluoroacetate]

>  <pIC50>
> 7.00

$$$$
>  <compound>
CC(=O)N1CCC(n2cc(-c3cnc(N)c4oc(-c5cccc6[nH]ccc56)cc34)cn2)CC1

>  <pIC50>
6.00 to 7.00

$$$$
>  <compound>
CCN1CCC(n2cc(-c3cnc(N)c4oc(-c5cccc6cnccc56)cc34)cn2)CC1

>  <pIC50>
6.00 to 7.00

$$$$
>  <compound>
Nc1ncc(-c2cnn([C@H]3CC[C@H](O)CC3)c2)c2cc(-c3csc4cnc(O)cc34)oc12

>  <pIC50>
5.00 to 6.00

$$$$
